assay: Solubility of HCl salt in solvents, saturated solution analyzed by HPLC; format: physicochemical; conditions: 21 °C, organic solvent or mixture, thermodynamic from solid; EtOAc, 21 ± 1° C.
reported.endpoint: solubility

# compound, measurement
rows = [
    ("Cc1ncnc2c1ccn2[C@@H]1O[C@H]([C@@H]2OCCc3cc(Cl)ccc32)[C@@H](O)[C@H]1O [Formula IA]", "120 µg/mL"),
]

----------
assay: Solubility of HCl salt in solvents, saturated solution analyzed by HPLC; assay type: physicochemical; details: 50 °C, organic solvent or mixture, thermodynamic from solid; IPA, 50 ± 1° C.

# input.smiles, solubility at 24 hr (µg/mL)
measured = [
    ("Cc1ncnc2c1ccn2[C@@H]1O[C@H]([C@@H]2OCCc3cc(Cl)ccc32)[C@@H](O)[C@H]1O", 1990),
]

----------
assay: Solubility of HCl salt in solvents, saturated solution analyzed by HPLC; format: physicochemical; conditions: 21 °C, organic solvent or mixture, thermodynamic from solid; Methanol, 21 ± 1° C.

# input.smiles, solubility
data = [
    ("Cc1ncnc2c1ccn2[C@@H]1O[C@H]([C@@H]2OCCc3cc(Cl)ccc32)[C@@H](O)[C@H]1O", "> 50 mg/mL"),
]

----------
test: Solubility of HCl salt in solvents, saturated solution analyzed by HPLC; assay type: physicochemical; conditions: 50 °C, organic solvent or mixture, thermodynamic from solid; EtOH, 50 ± 1° C.
reported.endpoint: solubility at 24 hr (mg/mL)

# input.smiles, reported.endpoint, measurement
rows = [
    ("Cc1ncnc2c1ccn2[C@@H]1O[C@H]([C@@H]2OCCc3cc(Cl)ccc32)[C@@H](O)[C@H]1O", "solubility at 24 hr", 10.8),
]

----------
assay: Solubility of HCl salt in solvents, saturated solution analyzed by HPLC; format: physicochemical; conditions: 50 °C, organic solvent or mixture, thermodynamic from solid; IPAc, 50 ± 1° C.

# input.smiles, units.text, solubility at 24 hr
data = [
    ("Cc1ncnc2c1ccn2[C@@H]1O[C@H]([C@@H]2OCCc3cc(Cl)ccc32)[C@@H](O)[C@H]1O", "µg/mL", 240),
]

----------
test: Solubility of HCl salt in solvents, saturated solution analyzed by HPLC; format: physicochemical; settings: 21 °C, organic solvent or mixture, thermodynamic from solid; IPAc, 21 ± 1° C.

# compound, units.text, solubility
data = [
    ("Cc1ncnc2c1ccn2[C@@H]1O[C@H]([C@@H]2OCCc3cc(Cl)ccc32)[C@@H](O)[C@H]1O [Formula IA]", "mg/mL", 0.16),
]

----------
experiment: Solubility of HCl salt in solvents, saturated solution analyzed by HPLC; format: physicochemical; conditions: 21 °C, thermodynamic from solid; Water, 21 ± 1° C.

# compound, units.text, solubility
records = [
    ("Cc1ncnc2c1ccn2[C@@H]1O[C@H]([C@@H]2OCCc3cc(Cl)ccc32)[C@@H](O)[C@H]1O [Formula IA]", "mg/mL", 14.7),
]
